target.entity: Protein farnesyltransferase (Homo sapiens, UniProt P49354+P49356)
assay.details: Inhibition of farnesyl transferase
measurement.type: IC50 (µM)
Write the value in µM as a bare number.

input: Requested read-out: IC50. Entry: COC(=O)[C@H](CCSC)NC(=O)CN1C(=O)N(Cc2cnc[nH]2)C(=O)C1(C)c1cccc2ccccc12 (stereo partly specified)
output: 19000

input: Which measured IC50 value corresponds to CC1(c2cccc3ccccc23)C(=O)N(CCCn2ccnc2)C(=O)N1Cc1cccc(Oc2ccccc2)c1 (stereo unspecified) ?
output: 0.72

input: Could you share which IC50 value was measured for CSCc1ccc(CN2C(=O)N(CCCn3ccnc3)C(=O)C2(C)c2cccc3ccccc23)cc1 (stereo unspecified) ?
output: 0.21

input: Could you tell me which IC50 is on file for CC1(c2cccc3ccccc23)NC(=O)N(CCCn2ccnc2)C1=O (stereo unspecified) ?
output: 7.7

input: Given CC1(c2cccc3ccccc23)C(=O)N(CCCn2ccnc2)C(=O)N1Cc1ccccc1CNS(C)(=O)=O (stereo unspecified) , state its recorded IC50.
output: 0.5

input: Dear colleague, I am looking for the recorded IC50 of the following compound: CSc1ccc(CN2C(=O)N(CCCn3ccnc3)C(=O)C2(C)c2cccc3ccccc23)cc1 (stereo unspecified)
output: 0.7

input: Could you share which IC50 value was measured for CSCC[C@H](NC(=O)CN1C(=O)N(Cc2c[nH]cn2)C(=O)C1(C)c1cccc2ccccc12)C(=O)O (stereo partly specified) ?
output: 61

input: Given the entry CCOC(=O)CN1C(=O)N(CCCn2ccnc2)C(=O)C1(C)c1cccc2ccccc12 (stereo unspecified) , report its measured IC50.
output: 1

input: # IC50 lookup, item CC1(c2cccc3ccccc23)C(=O)N(CCCn2ccnc2)C(=O)N1Cc1ccc(S(C)(=O)=O)c(C#N)c1 (stereo unspecified)
output: 0.73

input: For the compound CSc1ccc(CN2C(=O)N(CCCn3ccnc3)C(=O)C2(C)c2cccc3ccccc23)cc1C#N (stereo unspecified) , what IC50 is on record?
output: 0.08

input: Fill in the blank: the reported IC50 of CC1(c2cccc3ccccc23)C(=O)N(CCCn2ccnc2)C(=O)N1Cc1cccc(C(F)(F)F)c1 (stereo unspecified) is ____.
output: 1.7
